B1: TPR 5TU (parent)
chain: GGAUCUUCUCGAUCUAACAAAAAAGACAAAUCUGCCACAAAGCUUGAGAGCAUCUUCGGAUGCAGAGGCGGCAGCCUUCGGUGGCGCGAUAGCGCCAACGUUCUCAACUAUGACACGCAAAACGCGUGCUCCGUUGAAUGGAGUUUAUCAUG

Variants of: B1
test-details: polymerase ribozyme fitness, log enrichment relative to wild type (log ratio); higher = more active; in vitro selection for triplet polymerase activity
Variants at the floor of the assay were thinned out.
measured-attribute: polymerase ribozyme fitness (log ratio)

Q: Tell me the measured polymerase ribozyme fitness (log ratio) of C95U U145A , please.
Ans: 0.0594

Q: Sample G80C G86U G94C A137C — what was its polymerase ribozyme fitness (log ratio)?
Ans: ≤ -4.2

Q: Fill blank: measured polymerase ribozyme fitness (log ratio) of the variant U53G U55A U148C is ____.
Ans: ≤ -4.2

Q: Can you look up the measured polymerase ribozyme fitness (log ratio) of A16G C43A C57G G59U G70U G88U C99U A107G for me?
Ans: ≤ -4.2

Q: Return reported polymerase ribozyme fitness (log ratio); argument: G80A C85A
Ans: -0.619

Q: I would be grateful if you could share the reported polymerase ribozyme fitness (log ratio) for C8A C93A .
Ans: ≤ -4.2

Q: Entry C10G G11U U15C G84A G88U has what polymerase ribozyme fitness (log ratio)?
Ans: ≤ -4.2

Q: Request the reported polymerase ribozyme fitness (log ratio) associated with G80U C95G C96A
Ans: ≤ -4.2

Q: Quick one: polymerase ribozyme fitness (log ratio) for G11U A23U ?
Ans: ≤ -4.2

Q: Bench note: what polymerase ribozyme fitness (log ratio) did A39C A52G G70A C99G G100A U144A show?
Ans: ≤ -4.2

Q: Consider the variant shown here: U7A G94C U111C U135A A138U What is its recorded polymerase ribozyme fitness (log ratio)?
Ans: -3.87

Q: // query polymerase ribozyme fitness (log ratio) value for entry A39C G59A C87A U139G
Ans: ≤ -4.2

Q: Requested field: polymerase ribozyme fitness (log ratio). Item: U6C U55G C132A A138G
Ans: ≤ -4.2

Q: Form field: reported polymerase ribozyme fitness (log ratio) of A16G C27U A28G C43U U53A C57A U82G C93U G143C
Ans: ≤ -4.2

Q: What does the record list as polymerase ribozyme fitness (log ratio) for U9C A73U ?
Ans: -4.1

Q: Reported polymerase ribozyme fitness (log ratio) for G86U C125U : what is it?
Ans: -2.02

Q: For the variant A23C C93U G141U , what polymerase ribozyme fitness (log ratio) is on record?
Ans: ≤ -4.2

Q: Param item = C8U A52G C85A A119U U130G ; retrieve measured polymerase ribozyme fitness (log ratio).
Ans: ≤ -4.2

Q: Endpoint output: polymerase ribozyme fitness (log ratio) of C87U C105G A121U A122U . Value?
Ans: -1.19

Q: I would be grateful if you could share the reported polymerase ribozyme fitness (log ratio) for C75G A142U .
Ans: -3.7

Q: Which polymerase ribozyme fitness (log ratio) is reported for this variant? U53A C123U
Ans: -0.0861

Q: I have this variant here, C8G C35U C85G G88U U134A , and I need its recorded polymerase ribozyme fitness (log ratio).
Ans: ≤ -4.2
